Test system: MV4-11
assay-procedure: CellTox Green cytotoxicity fluorescence relative to DMSO vehicle (fold of vehicle RFU); higher = more cell death (loss of membrane integrity), active = 2 or more
condition-label: 1 µM; 24 h
assay-readout: CellTox Green cytotoxicity fluorescence

FC(F)(F)c1ccc(CNc2ccc(Cc3c[nH]c4ncc(Cl)cc34)cn2)cn1 | 1.09 (inactive)

Entry "COC(=O)[C@H](CCSC)NC(=O)c1ccc(NC[C@@H](N)CS)cc1-c1ccccc1" : reported CellTox Green cytotoxicity fluorescence = ?
0.927 (inactive)

Next compound: "CC(C)c1ccccc1Cc1cc(C(=O)Nc2ccc(S(=O)(=O)c3ccccc3C(C)(C)C)cc2)c(O)c(O)c1O"
0.933 (inactive)

Next compound: "CCOc1cc(C(C)(C)C)ccc1C1=N[C@@](C)(c2ccc(Cl)cc2)[C@@](C)(c2ccc(Cl)cc2)N1C(=O)N1CCN(CCCS(C)(=O)=O)CC1"
1.07 (inactive)

Next compound: Nc1cccc2c1C(=O)N(C1CCC(=O)NC1=O)C2=O (stereo not given) [Pomalidomide]
1.01 (inactive)

Sourced from the supplement of paper PMC7595190
